- Read-out: Cytochrome P450 3A4 (Homo sapiens)
- assay_summary: LTEA_HepaRG_CYP3A4: Life Technologies and Expression Analysis (LTEA) Assay for CYP3A4 using HepaRG (AID 2283487)
- stated_conditions: mRNA level, 48 h; actives raise or lower the signal
Active and inactive are the calls of the source. The calls were made as follows: active = hit-call score of the fitted dose curve at least 0.9, where 1 is the maximum; inactive = score below 0.9.
Reply using exactly one outcome from 1 (yes) for active, 0 (no) for inactive

Recorded results for 5 compounds are shown here.
1. CC(=O)[O][Hg][c]1ccccc1    1 (yes)
2. CC(C)(c1ccccc1)c1ccc(O)c(C(C)(C)c2ccccc2)c1    1 (yes)
3. Oc1cccc2cccnc12    0 (no)
4. Cn1sc(Cl)cc1=O    0 (no)
5. Cc1ccccc1N    0 (no)

[ask] Status in this test for O=C(O)C(F)(F)C(F)(F)C(F)(F)C(F)(F)C(F)(F)C(F)(F)C(F)(F)C(F)(F)C(F)(F)C(F)(F)F ?
[reply] 0 (no)

[ask] Status in this test for CN(C)N=O ?
[reply] 0 (no)

###

- Test system: turtle Estrogen Receptor (ERa), gene 101933533
- assay_summary: ATG_trERa_XSP2: Attagene TRANS-FACTORIAL Multi-Species (XSP2) HepG2 Assay for turtle Estrogen Receptor (ERa) (AID 2283812);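 also: human HepG2 liver cells transiently expressing turtle ERa-Gal4 chimeric receptor; reporter mRNA from GAL4-UAS units measured by RT-PCR and capillary electrophoresis; actives raise reporter signal above DMSO so AC50 reflects agonist activity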
Results filed as inconclusive are left out. The source made the active and inactive calls. Rule for the calls: active = hit-call score of the fitted dose curve at least 0.9, where 1 is the maximum; inconclusive = response in the unintended direction; inactive = score below 0.9.
Reply using exactly one outcome from active, inactive

Recorded results for 4 compounds are shown here.
1) CC(C)(C)c1cc(O)ccc1O    active
2) O=C1C2(Cl)C3(Cl)C4(Cl)C(Cl)(Cl)C5(Cl)C3(Cl)C1(Cl)C5(Cl)C24Cl (stereo not given)    active
3) C[C@]12CCC(=O)C[C@@H]1CC[C@@H]1[C@@H]2CC[C@]2(C)[C@@H](O)CC[C@@H]12    inactive
4) COP(=O)(OC)O/C(=C\Cl)c1cc(Cl)c(Cl)cc1Cl    active

Okay, now this compound:
[ask] Status in this test for CC(=O)C=C(C)C ?
[reply] inactive

###

- tgt: Peroxisome proliferator-activated receptor gamma (Homo sapiens) (UniProt P37231)
- Sequence (P37231 whole entry, looked up): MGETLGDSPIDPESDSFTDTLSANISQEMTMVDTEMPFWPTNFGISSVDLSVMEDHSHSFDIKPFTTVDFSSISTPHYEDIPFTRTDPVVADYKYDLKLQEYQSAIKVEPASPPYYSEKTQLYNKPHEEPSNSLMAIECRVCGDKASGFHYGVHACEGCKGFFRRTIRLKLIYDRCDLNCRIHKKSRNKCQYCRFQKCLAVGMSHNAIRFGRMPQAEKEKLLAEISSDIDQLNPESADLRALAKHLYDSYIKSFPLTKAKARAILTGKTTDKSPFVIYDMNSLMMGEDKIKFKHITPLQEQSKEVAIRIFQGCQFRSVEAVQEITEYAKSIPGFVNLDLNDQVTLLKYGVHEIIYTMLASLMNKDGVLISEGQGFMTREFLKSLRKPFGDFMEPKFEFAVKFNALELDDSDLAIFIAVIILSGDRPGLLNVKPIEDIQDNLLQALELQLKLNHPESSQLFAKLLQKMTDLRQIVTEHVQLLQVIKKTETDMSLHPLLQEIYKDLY
- assay_summary: ATG_PPARg_TRANS: Attagene TRANS-FACTORIAL HepG2 Assay for human Peroxisome Proliferator-activated Receptor-gamma (PPARg) (AID 2283007)
Inconclusive results are not listed. Calls of active or inactive are those of the source. The calls were made as follows: active = hit-call score of the fitted dose curve at least 0.9, where 1 is the maximum; inconclusive = response in the unintended direction; inactive = score below 0.9.
Reply using exactly one outcome from T = active, F = inactive

Recorded results for 2 compounds are shown here.
1) CCNc1nc(NC(C)(C)C)nc(SC)n1    T
2) O=C(Cl)c1ccc(Cl)cc1    F

[ask] Status in this test for Oc1ccc(-c2ccccc2)cc1 ?
[reply] F

[ask] Status in this test for CC(=O)OC(c1ccccc1)C(Cl)(Cl)Cl (stereo not drawn) ?
[reply] F

[ask] Status in this test for CCOP(=O)(CN(CCO)CCO)OCC ?
[reply] F

[ask] Status in this test for O=CC=O ?
[reply] F

[ask] Status in this test for C[C@H]1O[C@@H](O[C@H]2[C@@H](O)C[C@H](O[C@H]3[C@@H](O)C[C@H](O[C@H]4CC[C@@]5(C)[C@H](CC[C@@H]6[C@@H]5CC[C@]5(C)[C@@H](C7=CC(=O)OC7)CC[C@]65O)C4)O[C@@H]3C)O[C@@H]2C)C[C@H](O)[C@@H]1O ?
[reply] F

[ask] Status in this test for COc1ccc(C=O)cc1 ?
[reply] F

[ask] Status in this test for CCc1ccccc1N ?
[reply] F

[ask] Status in this test for CC(C#N)CCC#N (stereo not drawn) ?
[reply] F

[ask] Status in this test for COP(=O)(OC)O/C(=C\Cl)c1cc(Cl)c(Cl)cc1Cl ?
[reply] T

[ask] Status in this test for O=C1CCCN1 ?
[reply] F

[ask] Status in this test for O=C(c1ccccc1)C(Cl)Cl ?
[reply] F

###

- tgt: Cytochrome P450 2C19 (Homo sapiens)
- assay_summary: NVS_ADME_hCYP2C19: NovaScreen (NVS) CYP450-related Enzyme Activity (ADME) Assay for human CYP2C19 (AID 2283113);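 also: potency for inhibition seen as loss of fluorescent signal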
- Method: NVS_ADME_hCYP2C19 is a biochemical, single-readout assay that uses extracted gene-proteins from insect cells in a cell-free assay. Measurements were taken 1 hour after chemical dosing in a 96-well plate.NVS_ADME_hCYP2C19 is one of one assay component(s) measured or calculated from the NVS_ADME_hCYP2C19 assay. […] This assay endpoint, NVS_ADME_hCYP2C19, was analyzed in the positive analysis fitting direction relative to Acetonitrile as the negative control and baseline of activity. […]
Records with an inconclusive call do not appear. Activity calls are given as the source filed them. Rule for the calls: active = hit-call score of the fitted dose curve at least 0.9, where 1 is the maximum; inconclusive = response in the unintended direction; inactive = score below 0.9.
readout: AC50

Use these answered entries as a reference point.
1) CC(=O)[O][Hg][c]1ccccc1    1040 nM (active)
2) CCOP(=S)(OCC)Oc1ccc(S(C)=O)cc1 (configuration not stated)    528 nM (active)
3) CCOP(=S)(OCC)SCSP(=S)(OCC)OCC    4360 nM (active)

What the record says about Cn1sc(Cl)cc1=O : AC50 is 5770 nM (active)

What the record says about O=C(O)C(F)(F)C(F)(F)C(F)(F)C(F)(F)C(F)(F)C(F)(F)C(F)(F)C(F)(F)C(F)(F)C(F)(F)F : AC50 is 16200 nM (active)

What the record says about Oc1ccc(-c2ccccc2)cc1 : AC50 is 470 nM (active)

What the record says about CCCCCCCCC(=O)NCc1ccc(O)c(OC)c1 : AC50 is 1660 nM (active)

###

- assay_summary: CCTE_Shafer_MEA_acute_burst_number: CCTE's Neural Acute Assay for Single-Electrode Bursts, Shafer Lab (AID 2284013)
Activity calls are given as the source filed them. How the source made its calls: active means hit-call score of the fitted dose curve at least 0.9, where 1 is the maximum; inactive means score below 0.9.
Reply using exactly one outcome from active, inactive

Recorded results for 3 compounds are shown here.
1) CCCCCCCCc1ccc(O)cc1    active
2) CCC(C)(C)c1ccc(O)c(C(C)(C)CC)c1    active
3) O=C(O)C(Cl)(Cl)Cl    inactive

Okay, now this compound:
[ask] Status in this test for CC(=O)OC(c1ccccc1)C(Cl)(Cl)Cl (centres undefined) ?
[reply] inactive

###

- Read-out: Thyroid Hormone Responsive (THRSP), THRSP (gene 7069)
- assay_summary: LTEA_HepaRG_THRSP: Life Technologies and Expression Analysis (LTEA) Assay for Thyroid Hormone Responsive (THRSP) using HepaRG (AID 2283536)
- stated_conditions: mRNA level, 48 h; actives raise or lower the signal
Active and inactive are the calls of the source. The calls were made as follows: active = hit-call score of the fitted dose curve at least 0.9, where 1 is the maximum; inactive = score below 0.9.
Reply using exactly one outcome from T (active), F (inactive)

Recorded results for 6 molecules are shown here.
1. ClCC(Cl)CCl    F
2. O=C(Nc1ccc2[nH]ccc2c1)c1cc2cc(F)ccc2n1Cc1cccc(F)c1    T
3. CCOP(=S)(OCC)SCSP(=S)(OCC)OCC    T
4. O=C1C2(Cl)C3(Cl)C4(Cl)C(Cl)(Cl)C5(Cl)C3(Cl)C1(Cl)C5(Cl)C24Cl (stereo unspecified)    T
5. Oc1cccc2cccnc12    F
6. Cn1sc(Cl)cc1=O    F

[ask] Status in this test for C=C(C)C(=O)[O][Sn]([CH2]CCC)([CH2]CCC)[CH2]CCC ?
[reply] T

[ask] Status in this test for C=CC(=O)OCCCCCC(C)C ?
[reply] F

[ask] Status in this test for CN(C)N=O ?
[reply] F

[ask] Status in this test for CCOP(=S)(OCC)Oc1nc(Cl)c(Cl)cc1Cl ?
[reply] F

[ask] Status in this test for CCC(=O)C(CC(C)N(C)C)(c1ccccc1)c1ccccc1 (stereo unspecified) ?
[reply] T

[ask] Status in this test for O=C(O)C(F)(F)C(F)(F)C(F)(F)C(F)(F)C(F)(F)C(F)(F)F ?
[reply] F

[ask] Status in this test for C[C@@H]1C[C@@H]([C@H](O)CC2CC(=O)NC(=O)C2)C(=O)[C@@H](C)C1 ?
[reply] T

###

- tgt: Androgen Receptor/SRC-1 Co-activator, AR (gene 367)
- assay_summary: OT_AR_ARSRC1_0960: Odyssey Thera (OT) 16-hour HEK293T Protein-Complementation Assay for Androgen Receptor/SRC-1 Co-activator (AID 2283353);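 also: actives raise the signal above DMSO so potency reflects increased AR and SRC-1 complex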
Calls of active or inactive are those of the source. Rule for the calls: active = hit-call score of the fitted dose curve at least 0.9, where 1 is the maximum; inconclusive = response in the unintended direction; inactive = score below 0.9.
Reply using exactly one outcome from True for active, False for inactive

Recorded results for 2 compounds are shown here.
1. CCN1CCC2(CC1)COc1cc3c(cc12)N(C(=O)c1ccc(-c2ccc(-c4nnc(C)o4)cc2C)cc1)CC3    True
2. CCC1(c2ccc(N)cc2)CCC(=O)NC1=O (stereo not drawn)    False

Okay, now this compound:
[ask] Status in this test for COP(=O)(OC)OC ?
[reply] False

###

- Read-out: Transforming growth factor beta 1 (TGFb1), TGFB1 (gene 7040)
- assay_summary: BSK_KF3CT_TGFb1: BioMAP Diversity Plus: KF3CT Assay for Transforming growth factor beta 1 (TGFb1) Biomarker Activity (AID 2283072)
- stated_conditions: primary human keratinocytes with fibroblasts; actives raise or lower the signal
The source made the active and inactive calls. Rule for the calls: active = hit-call score of the fitted dose curve at least 0.9, where 1 is the maximum; inactive = score below 0.9.
Reply using exactly one outcome from class 1 = active, class 0 = inactive

Recorded results for 4 compounds are shown here.
1) COc1cc(OC)nc(NC(=O)NS(=O)(=O)c2ncccc2C(=O)N(C)C)n1    class 0
2) CCCCCCCCC(=O)NCc1ccc(O)c(OC)c1    class 0
3) C=C(C)C(=O)[O][Sn]([CH2]CCC)([CH2]CCC)[CH2]CCC    class 1
4) Oc1cccc2cccnc12    class 1

[ask] Status in this test for COP(=S)(OC)Oc1ccc(S(=O)(=O)N(C)C)cc1 ?
[reply] class 0

Data origin, for the record: PubChem BioAssay (EPA / NIEHS)
